The listing below reports Toxicity for molecules tested on HepG2 cells.
Measure: Toxicity

Molecule	System	Measure	Measured value
C[C@@]12CCC[C@H]1[C@@H]1CC[C@H]3C[C@H](O)CC[C@]3(C)[C@H]1CC2 [AN3, 5α-Androstan-3α-ol]	HepG2 cells	Toxicity	None
CC(=O)[C@@]1(O)CC[C@H]2[C@@H]3CC=C4C[C@@H](O)CC[C@]4(C)[C@H]3CC[C@@]21C [PR11, 5-Pregnen-3β,17-diol-20-one]	HepG2 cells	Toxicity	None
COc1c(O)ccc2c1CC[C@@H]1[C@@H]2CC[C@]2(C)C(=O)CC[C@@H]12 [ES5]	HepG2 cells	Toxicity	None
CCOP(=S)(OCC)Oc1nc(Cl)c(Cl)cc1Cl [MI10, Chlorpyrifos]	HepG2 cells	Toxicity	None
CC(=O)[C@H]1[C@H](C#N)C[C@H]2[C@@H]3CC=C4C[C@@H](O)CC[C@]4(C)[C@H]3CC[C@@]21C [PR13, 5-Pregnen-16α-cyano-3β-ol-20-one]	HepG2 cells	Toxicity	None
Nc1nc2ncc(CNc3ccc(C(=O)N[C@@H](CCC(=O)O)C(=O)O)cc3)nc2c(=O)[nH]1 [MI16, Folic acid]	HepG2 cells	Toxicity	None
COC(=O)CC[C@@H](C)[C@H]1CC[C@H]2[C@@H]3CC[C@@H]4C[C@H](OC(C)=O)CC[C@]4(C)[C@H]3CC[C@]12C [BI50, 5β-Cholanic acid-3α-acetate methyl ester]	HepG2 cells	Toxicity	None
C[C@]12CC[C@@H]3c4ccc(OS(=O)(=O)O)cc4CC[C@H]3[C@@H]1CC[C@@H]2O [ES10, 1,3,5(10)-Estratrien-17β-ol-3-sulfate]	HepG2 cells	Toxicity	200 µM
c1ccc2c(c1)cc1ccc3cccc4ccc2c1c34 [MI3, Benzo [a]pyren]	HepG2 cells	Toxicity	100 µM
CC(C)CCC[C@@H](C)[C@H]1CC[C@H]2C3=CC=C4C[C@@H](O)CC[C@]4(C)[C@H]3CC[C@]12C [MI28, Provitamin D3]	HepG2 cells	Toxicity	10 µM
Nc1cccc(C(=O)O)c1 [MI2, 3-Aminobenzoic acid]	HepG2 cells	Toxicity	None
C#C[C@]1(O)CC[C@H]2[C@@H]3CCC4=CC(=O)CC[C@@H]4[C@H]3CC[C@@]21CC [PR27]	HepG2 cells	Toxicity	None
CC(=O)[C@H]1CC[C@H]2[C@@H]3CC=C4C[C@@H](OS(=O)(=O)O)CC[C@]4(C)[C@H]3CC[C@]12C [PR26, 5-Pregnen-20-one-3β-sulfate]	HepG2 cells	Toxicity	None
C[C@H](CC(=O)O)[C@H]1CC[C@H]2[C@@H]3[C@H](O)C[C@@H]4C[C@H](O)CC[C@]4(C)[C@H]3C[C@H](O)[C@]12C [BI27, 23-Norcholic acid]	HepG2 cells	Toxicity	None

---

- System: human PXR (Homo sapiens)
- Sequence (O75469 1-434): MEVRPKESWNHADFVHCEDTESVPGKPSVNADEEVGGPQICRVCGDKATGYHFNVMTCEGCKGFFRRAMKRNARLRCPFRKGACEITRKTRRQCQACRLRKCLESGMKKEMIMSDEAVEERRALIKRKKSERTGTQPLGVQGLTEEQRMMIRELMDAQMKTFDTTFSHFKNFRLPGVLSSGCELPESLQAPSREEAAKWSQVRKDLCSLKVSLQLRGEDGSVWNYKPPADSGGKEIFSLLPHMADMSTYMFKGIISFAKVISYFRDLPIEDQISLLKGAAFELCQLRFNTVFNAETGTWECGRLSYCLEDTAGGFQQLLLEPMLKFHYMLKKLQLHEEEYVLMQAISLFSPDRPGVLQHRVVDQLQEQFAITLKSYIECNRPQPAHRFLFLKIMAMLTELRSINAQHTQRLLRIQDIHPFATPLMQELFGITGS

Compound	hPXR Activity
CC(=O)[C@H]1CC[C@H]2[C@@H]3CC=C4C[C@@H](OS(=O)(=O)O)CC[C@]4(C)[C@H]3CC[C@]12C [PR26, 5-Pregnen-20-one-3β-sulfate]	None
C[C@H](CCCC(CO)CO)[C@H]1CC[C@H]2[C@@H]3[C@H](O)C[C@@H]4C[C@H](O)CC[C@]4(C)[C@H]3C[C@H](O)[C@]12C	None
C[C@]12CC[C@@H]3c4ccc(OS(=O)(=O)O)cc4CC[C@H]3[C@@H]1CCC2=O [ES8, 1,3,5(10)-Estratrien-17-one-3-sulfate]	5.47
COc1c(C)c2c(c(O)c1C/C=C(\C)CCC(=O)O)C(=O)OC2	None
C[C@@]12C=CC[C@H]1[C@@H]1CC=C3C[C@@H](O)CC[C@]3(C)[C@H]1CC2	None
COc1c(O)ccc2c1CC[C@@H]1[C@@H]2CC[C@]2(C)C(=O)CC[C@@H]12	5.40
C[C@]12CC[C@@H](O)C[C@H]1CC[C@@H]1[C@@H]2[C@@H](O)C[C@@]2(C)[C@H]1CC[C@]2(O)C(=O)CO	4.33
CC(CCC[C@@H](C)[C@H]1CC[C@H]2[C@@H]3[C@H](O)C[C@@H]4C[C@H](O)CC[C@]4(C)[C@H]3C[C@H](O)[C@]12C)C(=O)NCCS(=O)(=O)O (stereo partly drawn)	None
CC(C)CCC[C@@H](C)[C@H]1CC[C@H]2C3=CC=C4C[C@@H](O)CC[C@]4(C)[C@H]3CC[C@]12C	None
C[C@H](CCCO)[C@H]1CC[C@H]2[C@@H]3[C@H](O)C[C@H]4C[C@H](O)CC[C@]4(C)[C@H]3C[C@H](O)[C@]12C	None
CC(C)[C@@H](C)/C=C/[C@@H](C)[C@H]1CC[C@H]2C3=CC=C4C[C@@H](O)CC[C@]4(C)[C@H]3CC[C@]12C [MI29, Provitamin D2]	None
C[C@@H](O)[C@@]1(O)CC[C@H]2[C@@H]3CCC4=CC(=O)CC[C@]4(C)[C@H]3CC[C@@]21C	None
